# Test system: PfAP2-EXP AP2 domain (GST-tagged)
# procedure_details: gcPBM binding intensity (ln(normalized median fluorescence intensity)); higher = stronger DNA binding
In all, about 25,000 sequences were measured (“ln(normalized median fluorescence intensity)”: median about 8.6, highest 2% from about 10 on). Only a selection was taken, and the highest values are over-represented in it overall.
We begin with a simple list: items and their reported gcPBM binding intensity (ln).

record_sequence	target_entity	gcPBM binding intensity (ln)
AAAAAAAAAATATATATATATATATATATATATATA [GTGCAC_negctrl_site467]	PfAP2-EXP AP2 domain (GST-tagged)	9.95
AAAAAAAAAAGAAACACACACATATATATATATAAT [CACACA_site5052]	PfAP2-EXP AP2 domain (GST-tagged)	8.61
AAAAAAAAAAAAGAAACACACACATATATATATATA [CACACA_site8525]	PfAP2-EXP AP2 domain (GST-tagged)	10.1
AATAATAAATAAATGTGTACTTAAAAATATTATATT [XGTACX_site3005]	PfAP2-EXP AP2 domain (GST-tagged)	8.44
TATATATATATGTGTACACATGTCGCATTTTTTTAT [CACACA_site4648]	PfAP2-EXP AP2 domain (GST-tagged)	10
AAAAAAAAAAAAAATATATATATATATATATATATA [CACACA_negctrl_site540]	PfAP2-EXP AP2 domain (GST-tagged)	10.2
CAAGAAAAGAAACACACACACATATATATATATATA [CACACA_site3881]	PfAP2-EXP AP2 domain (GST-tagged)	10.1
TAATTTTTATGAAGAAGTACAAAATCTACTATCATA [XGTACX_site4985]	PfAP2-EXP AP2 domain (GST-tagged)	7.99
AAACAGAAGACATATACACACATACAAAAAAGTGCA [CACACA_site4699]	PfAP2-EXP AP2 domain (GST-tagged)	8.81
AAGAAAAAAAAAAAAACACACATATATATATATATA [CACACA_site2027]	PfAP2-EXP AP2 domain (GST-tagged)	10.2
ATATATATATATATATGTACTTAAAAAATATATACA [XGTACX_site8952]	PfAP2-EXP AP2 domain (GST-tagged)	10.2
ATATTTATTTATTTATGTACGCACACAGTTGATATT [XGTACX_site5808]	PfAP2-EXP AP2 domain (GST-tagged)	8.92
TGCTACATTTTATGTACACACATATACAGATATATA [CACACA_site4646]	PfAP2-EXP AP2 domain (GST-tagged)	8.42
AAGACAAAACAAAGAAGTACATATATATATATATAT [XGTACX_site4067]	PfAP2-EXP AP2 domain (GST-tagged)	10.3
ATATATATATATGTGTGTACTTAAAAATATAATGCA [XGTACX_site7753]	PfAP2-EXP AP2 domain (GST-tagged)	10.2
TTACAACAGAATGGTATTTTTTTATTTTAAAGAAAA [TGCATGCA_negctrl_site230]	PfAP2-EXP AP2 domain (GST-tagged)	8.04
TTAAAAAGAAAGTTCACACACATATATATGACGGAA [CACACA_site2602]	PfAP2-EXP AP2 domain (GST-tagged)	8.93
CACAAGAAAGTTCACACACACACATATATATATATA [CACACA_site6009]	PfAP2-EXP AP2 domain (GST-tagged)	10.2
AAAAAAAAAAAATATATATATATATATATATATATA [CACACA_negctrl_site1606]	PfAP2-EXP AP2 domain (GST-tagged)	10.3
